Target Under Test: UniProtKB P36888
Sequence (P36888 27-993): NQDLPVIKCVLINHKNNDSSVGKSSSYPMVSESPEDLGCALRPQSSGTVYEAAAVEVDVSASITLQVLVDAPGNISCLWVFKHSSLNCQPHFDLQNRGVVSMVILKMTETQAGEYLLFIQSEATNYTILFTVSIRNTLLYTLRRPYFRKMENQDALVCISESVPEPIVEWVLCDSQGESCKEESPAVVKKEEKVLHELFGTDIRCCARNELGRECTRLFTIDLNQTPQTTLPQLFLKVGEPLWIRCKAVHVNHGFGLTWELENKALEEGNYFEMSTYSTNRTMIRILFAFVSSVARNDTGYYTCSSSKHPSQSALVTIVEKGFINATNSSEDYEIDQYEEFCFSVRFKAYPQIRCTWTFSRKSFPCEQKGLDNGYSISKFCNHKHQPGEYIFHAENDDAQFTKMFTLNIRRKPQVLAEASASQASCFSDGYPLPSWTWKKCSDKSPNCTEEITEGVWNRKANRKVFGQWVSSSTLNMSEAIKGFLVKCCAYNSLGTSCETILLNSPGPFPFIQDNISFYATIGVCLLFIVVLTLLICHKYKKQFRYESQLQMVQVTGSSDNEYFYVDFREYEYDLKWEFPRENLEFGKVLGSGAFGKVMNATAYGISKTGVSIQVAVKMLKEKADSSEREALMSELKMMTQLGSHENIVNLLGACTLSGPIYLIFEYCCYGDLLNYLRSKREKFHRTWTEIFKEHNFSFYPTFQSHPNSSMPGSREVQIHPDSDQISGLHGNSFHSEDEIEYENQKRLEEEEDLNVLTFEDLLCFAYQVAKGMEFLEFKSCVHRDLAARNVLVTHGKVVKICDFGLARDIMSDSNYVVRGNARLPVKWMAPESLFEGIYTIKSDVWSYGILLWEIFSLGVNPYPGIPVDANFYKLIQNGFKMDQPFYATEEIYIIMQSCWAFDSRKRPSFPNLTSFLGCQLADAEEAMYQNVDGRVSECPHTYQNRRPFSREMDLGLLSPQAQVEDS
Measurement Notes: Cell-based FLT3 receptor ELISA (FLT ligand-induced phosphorylation in Baf3 FLT3 cells)
Stated Conditions: 100 ng/mL Flt ligand, uncertainty ±20%
Recorded pIC50 values for a group of compounds are listed next.
pIC50 (log units): -log10 of the concentration in mol/L.

Some entries whose results are on file:
1) CS(=O)(=O)NCCCOc1ccc2c(C3CCN(C(=O)Nc4ccc(N5CCOCC5)cc4)CC3)ncnc2c1 [Example 66] | 7.89
2) O=C(Nc1ccc(N2CCCC2)cc1)N1CCC(c2ncnc3cc(N4CCCC4)ccc23)CC1 [Compound 179] | 7.31
3) O=C1CCCN1CCCOc1ccc2c(C3CCN(C(=O)Nc4ccc(N5CCOCC5)nc4)CC3)ncnc2c1 [Example 72] | 7.55
4) O=C(NCCCOc1ccc2c(C3CCN(C(=O)Nc4ccc(N5CCCC5)nc4)CC3)ncnc2c1)N1CCOCC1 [Example 112] | 7.10
5) O=C(Nc1ccc(N2CCOCC2)cc1)N1CCC(c2ncnc3cc(N4CCC[C@@H]4CO)ccc23)CC1 [Example 132] | 7.57
6) CCN(CC)CCCOc1ccc2c(C3CCN(C(=O)Nc4ccc(N5CCOCC5)cc4)CC3)ncnc2c1 [Example 134] | 7.51

Prompt line: Name the reported pIC50 value associated with the compound O=C(Nc1ccc(N2CCOCC2)cc1)N1CCC(c2ncnc3cc(OCCCN4CCNCC4)ccc23)CC1 [Example 123]
Response line: 8.70

Prompt line: Name the reported pIC50 value associated with the compound CC(=O)N1CCN(c2ccc3c(C4CCN(C(=O)Nc5ccc(N6CCCC6)cc5)CC4)ncnc3c2)CC1 [Example 166]
Response line: 7.80

Prompt line: Name the reported pIC50 value associated with the compound CC(C)c1ccc(NC(=O)CN2CCC(c3ncnc4ccccc34)CC2)cc1 [Example 16]
Response line: 6.47

Prompt line: Name the reported pIC50 value associated with the compound CCCCc1ccc(NC(=O)N2CCC(c3ncnc4cc(OC)c(OC)cc34)CC2)cc1 [Example 43]
Response line: 7.23

Prompt line: Name the reported pIC50 value associated with the compound CN1CCN(CCOc2ccc3c(C4CCN(C(=O)Nc5ccc(N6CCCC6)cc5)CC4)ncnc3c2)CC1 [Example 157]
Response line: 7.80

Prompt line: Name the reported pIC50 value associated with the compound COc1cc2ncnc(C3CCN(C(=O)Nc4ccc(C(C)C)cc4)CC3)c2cc1OC [Example 4]
Response line: 7.25

Prompt line: Name the reported pIC50 value associated with the compound O=C(Nc1ccc(N2CCOCC2)cc1)N1CCC(c2ncnc3cc(N4CCC(F)CC4)ccc23)CC1 [Compound 196]
Response line: 8.52

Prompt line: Name the reported pIC50 value associated with the compound CC(C)Oc1ccc(NC(=O)N2CCC(c3ncnc4ccc(I)cc34)CC2)cc1 [Example 11]
Response line: 5.85

Prompt line: Name the reported pIC50 value associated with the compound O=C(Nc1ccc(N2CCOCC2)cc1)N1CCC(c2ncnc3cc(OCCC4CCCCN4)ccc23)CC1 (stereo not shown) [Example 98]
Response line: 7.07

Prompt line: Name the reported pIC50 value associated with the compound CC(C)Oc1ccc(NC(=O)N2CCC(c3ccnc4ccccc34)CC2)cc1 [Example 6]
Response line: 7.40

Prompt line: Name the reported pIC50 value associated with the compound CC(=O)N1CC[C@@H](Oc2ccc3c(C4CCN(C(=O)Nc5ccc(N6CCCC6)cc5)CC4)ncnc3c2)C1 [Example 154]
Response line: 8.70

Prompt line: Name the reported pIC50 value associated with the compound CC(=O)N1CCN(CCOc2ccc3c(C4CCN(C(=O)Nc5ccc(N6CCOCC6)cc5)CC4)ncnc3c2)CC1 [Example 97]
Response line: 7.44

Prompt line: Name the reported pIC50 value associated with the compound COc1cc2c(C3CCN(C(=O)Nc4ccc(N5CCCC5)cc4)CC3)ncnc2cc1OCCN1CCCC1=O [Compound 209]
Response line: 7.43

Prompt line: Name the reported pIC50 value associated with the compound CCN(CC)CCOc1ccc2c(C3CCN(C(=O)Nc4ccc(OC(C)C)cc4)CC3)ncnc2c1 [Example 35]
Response line: 7.22

Prompt line: Name the reported pIC50 value associated with the compound CN1CCN(CCCOc2ccc3c(C4CCN(C(=O)Nc5cnc(N6CCCC6)nc5)CC4)ncnc3c2)CC1 [Example 105]
Response line: 7.01

Prompt line: Name the reported pIC50 value associated with the compound CS(=O)(=O)NCCCOc1ccc2c(C3CCN(C(=O)Nc4ccc(N5CCOCC5)nc4)CC3)ncnc2c1 [Example 87]
Response line: 7.64

Prompt line: Name the reported pIC50 value associated with the compound O=C(Nc1ccc(N2CCCC2)cc1)N1CCC(c2ncnc3cc(OCCN4CCOC4=O)ccc23)CC1 [Example 147]
Response line: 9.70

Prompt line: Name the reported pIC50 value associated with the compound CCOc1ccc(NC(=O)N2CCC(c3ncnc4cc(OC)c(OC)cc34)CC2)cc1 [Example 44]
Response line: 6.79

Prompt line: Name the reported pIC50 value associated with the compound COc1cc2ncnc(C3CCN(C(=O)Nc4ccc5ncsc5c4)CC3)c2cc1OC [Example 24]
Response line: 5.59

Prompt line: Name the reported pIC50 value associated with the compound O=C(Nc1ccc(N2CCOCC2)cc1)N1CCC(c2ncnc3cc(OCCN4CCOCC4)ccc23)CC1 [Example 96]
Response line: 6.61

Reference source for all entries: patent US20070004660A1
